Field: Log10GI50. Provide a value for each of the compounds that follow.
- System: SNB-19
- Assay Remarks: NCI screening panel, SNB-19 (CNS Cancer)
- Assay type: cell-based, human
# print the numeric value only

[ask] Hello, I am looking for reported Log10GI50 with SNB-19 for CC(C)C[C@H](NC(=O)[C@H](COC(F)F)NC(=O)[C@H](COC(F)F)NC(=O)[C@H](CCc1ccccc1)NC(=O)CN1CCOCC1)C(=O)[C@@]1(C)CO1 . Could you help?
[reply] −7.14

[ask] Again, but for CC(C)C[C@H](NC(=O)[C@H](Cc1ccccc1)NC(=O)[C@H](COC(F)F)NC(=O)[C@H](COC(F)F)NC(=O)CN1CCOCC1)C(=O)[C@@]1(C)CO1
[reply] −7.20

[ask] Again, but for CC(C)C[C@H](NC(=O)[C@H](COC(F)F)NC(=O)[C@H](COC(F)F)NC(=O)[C@H](COC(F)F)NC(=O)CN1CCOCC1)C(=O)[C@@]1(C)CO1
[reply] −7.16

[ask] Again, but for CC(C)C[C@H](NC(=O)[C@H](COC(F)F)NC(=O)CN1CCOCC1)C(=O)N[C@@H](Cc1ccccc1)C(=O)N[C@@H](Cc1ccccc1)C(=O)[C@@]1(C)CO1
[reply] −7.66

----------
- System: NCI/ADR-RES
- Assay Remarks: NCI screening panel, NCI/ADR-RES (Ovarian Cancer)
- Format: cell-based, human
Labelling field: enter Y if recorded Log10GI50 is less than -5. Enter N if it equals or exceeds that cut-off.

[ask] Please let me know if CC(C)C[C@H](NC(=O)[C@H](COC(F)F)NC(=O)CN1CCOCC1)C(=O)N[C@@H](COC(F)F)C(=O)N[C@@H](Cc1ccccc1)C(=O)[C@@]1(C)CO1 shows Log10GI50 below -5.
[reply] Y

[ask] Again, but for CC(C)C[C@H](NC(=O)[C@H](COC(F)F)NC(=O)[C@H](COC(F)F)NC(=O)[C@H](COC(F)F)NC(=O)CN1CCOCC1)C(=O)[C@@]1(C)CO1
[reply] N

[ask] Again, but for CC(C)C[C@H](NC(=O)[C@H](COC(F)F)NC(=O)CN1CCOCC1)C(=O)N[C@@H](Cc1ccccc1)C(=O)N[C@@H](CC(C)C)C(=O)[C@@]1(C)CO1
[reply] Y

[ask] Again, but for CC(C)C[C@H](NC(=O)[C@H](COC(F)F)NC(=O)[C@H](COC(F)F)NC(=O)[C@H](CCc1ccccc1)NC(=O)CN1CCOCC1)C(=O)[C@@]1(C)CO1
[reply] Y

[ask] Again, but for CC(C)C[C@H](NC(=O)[C@H](Cc1ccccc1)NC(=O)[C@H](COC(F)F)NC(=O)[C@H](COC(F)F)NC(=O)CN1CCOCC1)C(=O)[C@@]1(C)CO1
[reply] Y

[ask] Again, but for CC(C)C[C@H](NC(=O)[C@H](COC(F)F)NC(=O)CN1CCOCC1)C(=O)N[C@@H](Cc1ccccc1)C(=O)N[C@@H](Cc1ccccc1)C(=O)[C@@]1(C)CO1
[reply] Y

----------
- Test system: LOX IMVI
- Assay Remarks: NCI screening panel, LOX IMVI (Melanoma)
- Format: cell-based, human
- Method: Representative compounds of Formula I were screened using the National Cancer Institute (NCI) screening panel, which consists of a panel of human tumor cell lines, representing leukemia, melanoma, and cancers of the lung, colon, ovary, breast, prostate and renal system. […] Three dose response parameters are calculated for each experimental agent. […] The drug concentration resulting in total growth inhibition (TGI) is calculated from Ti=Tz. […]
Field: Log10TGI50. Provide a value for each of the compounds that follow.
# print the numeric value only

[ask] Can you share its Log10TGI50? I mean this compound: CC(C)C[C@H](NC(=O)[C@H](COC(F)F)NC(=O)CN1CCOCC1)C(=O)N[C@@H](COC(F)F)C(=O)N[C@@H](Cc1ccccc1)C(=O)[C@@]1(C)CO1
[reply] −7.42

[ask] Again, but for CC(C)C[C@H](NC(=O)[C@H](COC(F)F)NC(=O)[C@H](COC(F)F)NC(=O)[C@H](CCc1ccccc1)NC(=O)CN1CCOCC1)C(=O)[C@@]1(C)CO1
[reply] −7.56

[ask] Again, but for CC(C)C[C@H](NC(=O)[C@H](COC(F)F)NC(=O)CN1CCOCC1)C(=O)N[C@@H](Cc1ccccc1)C(=O)N[C@@H](CC(C)C)C(=O)[C@@]1(C)CO1
[reply] −7.62

[ask] Again, but for CC(C)C[C@H](NC(=O)[C@H](COC(F)F)NC(=O)CN1CCOCC1)C(=O)N[C@@H](COC(F)F)C(=O)N[C@@H](CC(C)C)C(=O)[C@@]1(C)CO1
[reply] −7.51

[ask] Again, but for CC(C)C[C@H](NC(=O)[C@H](COC(F)F)NC(=O)[C@H](COC(F)F)NC(=O)[C@H](COC(F)F)NC(=O)CN1CCOCC1)C(=O)[C@@]1(C)CO1
[reply] −6.81

[ask] Again, but for CC(C)C[C@H](NC(=O)[C@H](Cc1ccccc1)NC(=O)[C@H](COC(F)F)NC(=O)[C@H](COC(F)F)NC(=O)CN1CCOCC1)C(=O)[C@@]1(C)CO1
[reply] −7.44

[ask] Again, but for CC(C)C[C@H](NC(=O)[C@H](COC(F)F)NC(=O)CN1CCOCC1)C(=O)N[C@@H](Cc1ccccc1)C(=O)N[C@@H](Cc1ccccc1)C(=O)[C@@]1(C)CO1
[reply] −7.71

----------
- System: SF-539
- Assay Remarks: NCI screening panel, SF-539 (CNS Cancer)
- Assay type: cell-based, human
Field: Log10TGI50. Provide a value for each of the compounds that follow.

[ask] Can you share its Log10TGI50? I mean this compound: CC(C)C[C@H](NC(=O)[C@H](COC(F)F)NC(=O)CN1CCOCC1)C(=O)N[C@@H](COC(F)F)C(=O)N[C@@H](Cc1ccccc1)C(=O)[C@@]1(C)CO1 [Example 4]
[reply] −7.22

[ask] Again, but for CC(C)C[C@H](NC(=O)[C@H](COC(F)F)NC(=O)[C@H](COC(F)F)NC(=O)[C@H](CCc1ccccc1)NC(=O)CN1CCOCC1)C(=O)[C@@]1(C)CO1 [Example 7]
[reply] −7.20

[ask] Again, but for CC(C)C[C@H](NC(=O)[C@H](COC(F)F)NC(=O)CN1CCOCC1)C(=O)N[C@@H](COC(F)F)C(=O)N[C@@H](CC(C)C)C(=O)[C@@]1(C)CO1 [Example 1]
[reply] −7.35

[ask] Again, but for CC(C)C[C@H](NC(=O)[C@H](COC(F)F)NC(=O)[C@H](COC(F)F)NC(=O)[C@H](COC(F)F)NC(=O)CN1CCOCC1)C(=O)[C@@]1(C)CO1 [Example 17]
[reply] −6.67

[ask] Again, but for CC(C)C[C@H](NC(=O)[C@H](COC(F)F)NC(=O)CN1CCOCC1)C(=O)N[C@@H](Cc1ccccc1)C(=O)N[C@@H](Cc1ccccc1)C(=O)[C@@]1(C)CO1 [Example 3]
[reply] −7.42

[ask] Again, but for CC(C)C[C@H](NC(=O)[C@H](COC(F)F)NC(=O)CN1CCOCC1)C(=O)N[C@@H](Cc1ccccc1)C(=O)N[C@@H](CC(C)C)C(=O)[C@@]1(C)CO1 [Example 2]
[reply] −7.46

[ask] Again, but for CC(C)C[C@H](NC(=O)[C@H](Cc1ccccc1)NC(=O)[C@H](COC(F)F)NC(=O)[C@H](COC(F)F)NC(=O)CN1CCOCC1)C(=O)[C@@]1(C)CO1 [Example 11]
[reply] −7.21

----------
Field: Log10GI50. Provide a value for each of the compounds that follow.
- Test system: HOP-92
- Assay Remarks: NCI screening panel, HOP-92 (Non-Small Cell Lung Cancer)
- Assay type: cell-based, human
# print the numeric value only

[ask] Can you share its Log10GI50? I mean this compound: CC(C)C[C@H](NC(=O)[C@H](Cc1ccccc1)NC(=O)[C@H](COC(F)F)NC(=O)[C@H](COC(F)F)NC(=O)CN1CCOCC1)C(=O)[C@@]1(C)CO1
[reply] −7.62

[ask] Again, but for CC(C)C[C@H](NC(=O)[C@H](COC(F)F)NC(=O)[C@H](COC(F)F)NC(=O)[C@H](CCc1ccccc1)NC(=O)CN1CCOCC1)C(=O)[C@@]1(C)CO1
[reply] −7.71

[ask] Again, but for CC(C)C[C@H](NC(=O)[C@H](COC(F)F)NC(=O)CN1CCOCC1)C(=O)N[C@@H](COC(F)F)C(=O)N[C@@H](Cc1ccccc1)C(=O)[C@@]1(C)CO1
[reply] −7.59

[ask] Again, but for CC(C)C[C@H](NC(=O)[C@H](COC(F)F)NC(=O)[C@H](COC(F)F)NC(=O)[C@H](COC(F)F)NC(=O)CN1CCOCC1)C(=O)[C@@]1(C)CO1
[reply] −7.56

[ask] Again, but for CC(C)C[C@H](NC(=O)[C@H](COC(F)F)NC(=O)CN1CCOCC1)C(=O)N[C@@H](COC(F)F)C(=O)N[C@@H](CC(C)C)C(=O)[C@@]1(C)CO1
[reply] −7.74
